TARGET OR SYSTEM: human CB1 receptor (Homo sapiens)
PROTOCOL DETAILS: biochemical
CONDITION PARAMETERS: CB1 inhibition IC50 (μM, 95% CI)
MEASURE NAME: IC50 (µM)
Output spec: scalar in µM, unitless text.

The value of IC50 measured for the compound CC(C)OC(=O)CCC/C=C\C[C@@H]1[C@@H](/C=C/[C@@H](O)COc2cccc(C(F)(F)F)c2)[C@H](O)C[C@@H]1O turned out to be 232

Consider COc1cc(O)c2c(=O)cc(-c3ccc(OC)c(-c4c(O)cc(O)c5c(=O)cc(-c6ccc(O)cc6)oc45)c3)oc2c1 . Its measured IC50 is 63

----------
TARGET OR SYSTEM: human CB1 receptor (Homo sapiens, UniProt P21554)
Sequence (P21554 whole entry): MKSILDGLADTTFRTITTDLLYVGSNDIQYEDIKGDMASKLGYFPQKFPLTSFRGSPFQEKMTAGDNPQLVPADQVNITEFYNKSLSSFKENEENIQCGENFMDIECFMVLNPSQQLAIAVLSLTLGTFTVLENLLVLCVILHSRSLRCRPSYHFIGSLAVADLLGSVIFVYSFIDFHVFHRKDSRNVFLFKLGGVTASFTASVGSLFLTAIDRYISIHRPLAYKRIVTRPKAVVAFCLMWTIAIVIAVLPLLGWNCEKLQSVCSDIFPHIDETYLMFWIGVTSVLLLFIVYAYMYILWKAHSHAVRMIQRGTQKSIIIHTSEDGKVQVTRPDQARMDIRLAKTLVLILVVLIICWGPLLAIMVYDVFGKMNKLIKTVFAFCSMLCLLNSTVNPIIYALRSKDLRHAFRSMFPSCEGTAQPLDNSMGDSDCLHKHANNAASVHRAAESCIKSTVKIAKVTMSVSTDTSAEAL
PROTOCOL DETAILS: biochemical
Format: binding
Design: purchased Merck HTS019M; host or cells: Chem-1 cells
Protocol: Compounds selected for the in vitro binding assay from the first iteration of VS were purchased via MolPort, SIA, Riga, Latvia and Biopurify Phytochemicals Ltd., Chengdu, China. […] Compounds were dissolved in 50% DMSO and added to the reaction mixture at 10 concentrations equally spaced on a log scale (10^–10 to 10^–4.5 M). […] Plates were counted (2 min. per well) in a Trilux MicroBeta^2 2450 scintillation counter (Perkin Elmer, USA). Data were analyzed with GraphPad Prism 5.0 software.[89]
MEASURE NAME: Ki (μM, 95% CI)

Before answering, review these 5 worked examples.
CCCS(=O)(=O)Nc1ccc(F)c(C(=O)c2c[nH]c3ncc(-c4ccc(Cl)cc4)cc23)c1F [Compound 29, Vemurafenib]
no activity
O=c1cc(-c2ccc(O)cc2)oc2c(C3O[C@H](CO)[C@@H](O[C@@H]4O[C@H](CO)[C@@H](O)[C@H](O)[C@H]4O)[C@H](O)[C@H]3O)c(O)cc(O)c12 (some centres unmarked) [Compound 11, 4”-O-Glucosylvitexin]
no activity
CC(C)=CCC[C@](C)(O)[C@H]1CC[C@]2(C)[C@@H]1[C@H](O)C[C@@H]1[C@@]3(C)CC[C@H](O)C(C)(C)[C@@H]3[C@@H](O)C[C@]12C [Compound 10, (20S)-Protopanaxatriol]
no activity
COc1ccc(-c2cc(=O)c3c(O)cc4c(c3o2)C(c2cccc(Cl)c2F)CC(=O)O4)cc1O (racemic) [Compound 31]
no activity
COc1cc2c(cc1OC)[C@@H](Cc1ccc(O)c(Oc3cc4c(cc3OC)CCN(C)[C@@H]4Cc3ccc(O)cc3)c1)N(C)CC2 [Compound 16, Liensinine]
no activity

The compound listed as OCC1=C[C@@H](O)[C@]2(O[C@@H]3O[C@H](CO)[C@@H](O)[C@H](O)[C@H]3O[C@@H]3O[C@H](CO)[C@@H](O)[C@H](O)[C@H]3O)C=CO[C@@H](O[C@@H]3O[C@H](CO)[C@@H](O)[C@H](O)[C@H]3O)[C@H]12 [Compound 19, Rehmannioside D] shows Ki (μM, 95% CI) equal to no activity

Value of Ki (μM, 95% CI) reported for the compound COc1ccc(CCNC(=O)c2[nH]c3ccccc3c2NC(=O)c2cccc(C)c2)cc1OC [Compound 28] is no activity

Notebook: O=C(NCCc1ccc(F)cc1)c1cc2c([nH]c3ccccc32)c(-c2ccc(F)cc2)n1 [Compound 23] , Ki (μM, 95% CI) read as no activity

For O=C(NC[C@H]1CN(c2ccc(N3CCOCC3=O)cc2)C(=O)O1)c1ccc(Cl)s1 [Compound 7, Rivaroxaban] the compound record lists Ki (μM, 95% CI) as no activity

Reported Ki (μM, 95% CI) for COC(=O)C1=C(C)NC(C)=C(C(=O)OCCN(C)Cc2ccccc2)C1c1cccc([N+](=O)[O-])c1 (centres unmarked) [Compound 5, Nicardipine] was no activity
